Measured IC50, listed per entry for reference.
molecular target: Histone-binding protein RBBP4/Polycomb protein EED/Polycomb protein SUZ12/Zinc finger protein AEBP2 (Human, UniProt O75530+Q09028+Q15022+Q6ZN18); experiment: Enzymatic Activity Assay
Sequence (O75530 whole entry): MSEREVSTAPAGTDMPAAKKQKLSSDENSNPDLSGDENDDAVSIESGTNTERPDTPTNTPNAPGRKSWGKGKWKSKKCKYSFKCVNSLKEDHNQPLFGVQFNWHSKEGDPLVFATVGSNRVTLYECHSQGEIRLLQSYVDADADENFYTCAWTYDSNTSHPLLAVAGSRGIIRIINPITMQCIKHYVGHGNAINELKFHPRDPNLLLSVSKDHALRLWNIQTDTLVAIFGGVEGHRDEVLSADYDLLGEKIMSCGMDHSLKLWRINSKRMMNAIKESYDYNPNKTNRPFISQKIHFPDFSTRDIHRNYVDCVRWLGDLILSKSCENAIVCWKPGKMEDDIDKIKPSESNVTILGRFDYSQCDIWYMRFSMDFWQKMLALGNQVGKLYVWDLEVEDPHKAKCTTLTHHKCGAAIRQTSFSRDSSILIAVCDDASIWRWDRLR
Sequence (Q15022 whole entry): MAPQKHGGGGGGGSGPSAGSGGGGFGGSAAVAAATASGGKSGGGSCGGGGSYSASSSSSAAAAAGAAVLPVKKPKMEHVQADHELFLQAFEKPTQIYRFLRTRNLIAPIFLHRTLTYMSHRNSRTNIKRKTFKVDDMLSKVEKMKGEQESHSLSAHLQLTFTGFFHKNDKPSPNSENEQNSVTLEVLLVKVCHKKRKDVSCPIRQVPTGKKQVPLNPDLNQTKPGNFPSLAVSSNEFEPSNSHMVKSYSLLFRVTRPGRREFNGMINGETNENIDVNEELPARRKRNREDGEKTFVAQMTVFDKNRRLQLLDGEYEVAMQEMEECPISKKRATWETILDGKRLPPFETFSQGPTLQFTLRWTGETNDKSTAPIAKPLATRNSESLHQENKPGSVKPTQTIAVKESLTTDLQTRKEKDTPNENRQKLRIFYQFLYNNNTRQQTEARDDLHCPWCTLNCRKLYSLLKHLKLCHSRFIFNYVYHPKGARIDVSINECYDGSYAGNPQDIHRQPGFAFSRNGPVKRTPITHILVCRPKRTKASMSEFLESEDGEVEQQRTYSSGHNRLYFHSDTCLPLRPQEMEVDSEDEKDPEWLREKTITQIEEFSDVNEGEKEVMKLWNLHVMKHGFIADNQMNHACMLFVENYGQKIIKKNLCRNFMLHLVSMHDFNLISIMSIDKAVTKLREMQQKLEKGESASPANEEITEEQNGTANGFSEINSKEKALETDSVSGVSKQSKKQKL
Sequence (Q6ZN18 whole entry): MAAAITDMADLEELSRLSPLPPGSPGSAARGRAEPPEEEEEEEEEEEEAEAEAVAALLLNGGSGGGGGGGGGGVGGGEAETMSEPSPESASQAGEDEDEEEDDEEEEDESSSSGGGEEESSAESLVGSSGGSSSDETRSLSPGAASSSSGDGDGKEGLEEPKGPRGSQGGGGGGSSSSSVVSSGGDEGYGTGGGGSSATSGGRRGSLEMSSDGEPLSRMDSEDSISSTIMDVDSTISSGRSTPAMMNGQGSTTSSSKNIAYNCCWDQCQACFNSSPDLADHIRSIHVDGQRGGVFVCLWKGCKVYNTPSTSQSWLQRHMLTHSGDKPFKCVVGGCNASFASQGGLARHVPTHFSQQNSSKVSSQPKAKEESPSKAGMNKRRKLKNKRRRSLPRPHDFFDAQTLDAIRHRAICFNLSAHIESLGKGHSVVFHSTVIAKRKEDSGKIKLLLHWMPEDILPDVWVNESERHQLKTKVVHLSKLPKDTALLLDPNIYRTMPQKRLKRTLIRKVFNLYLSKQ
Sequence (Q09028 whole entry): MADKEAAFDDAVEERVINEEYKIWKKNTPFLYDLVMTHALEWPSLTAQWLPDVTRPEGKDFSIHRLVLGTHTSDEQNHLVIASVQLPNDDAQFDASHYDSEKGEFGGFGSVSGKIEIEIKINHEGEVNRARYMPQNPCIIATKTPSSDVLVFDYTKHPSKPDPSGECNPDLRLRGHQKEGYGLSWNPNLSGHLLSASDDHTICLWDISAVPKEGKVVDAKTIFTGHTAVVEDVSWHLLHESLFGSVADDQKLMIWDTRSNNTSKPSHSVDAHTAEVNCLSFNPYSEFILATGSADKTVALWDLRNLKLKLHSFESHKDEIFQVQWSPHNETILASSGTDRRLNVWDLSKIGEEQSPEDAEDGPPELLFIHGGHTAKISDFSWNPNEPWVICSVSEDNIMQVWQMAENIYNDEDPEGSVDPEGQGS
quantity: IC50

smiles structure: Cc1cc(S(C)(=O)=O)ccc1-c1cnc(NCc2c(F)ccc3c2CCO3)n2cc(C#N)nc12
reported value: < 0.1 µM
--
smiles structure: Cc1nc(N2CCOCC2)ccc1-c1cnc(NCc2c(F)ccc3c2CCO3)n2cc(C#N)nc12
reported value: < 0.1 µM
